# assayRemarks: DPPH radical scavenging activity at 40 umol/L relative to control
# Type: functional
So I've got a bunch of compounds here, and I need their Activity values.
Give bare numbers, in %.

Example entries begin here.
1. C[C@H]1CCC2C(C)(C)CCC[C@]2(C)/C1=C/c1cc(O)c(O)c(/C=N/CCS(=O)(=O)O)c1OS(=O)(=O)O (stereo not given in full); 23.5
2. C[C@H]1CCC2C(C)(C)CCC[C@]2(C)/C1=C/c1cc(O)c(O)c(C=O)c1OS(=O)(=O)O (stereo not given in full); 25.3
3. C=C1CCCC2[C@](C)(Cc3cc(C=O)cc(O)c3OS(=O)(=O)O)[C@@H](C)CC[C@]12C (stereo not given in full); 5.9

Your task in this section: give Activity for each listed record.
1. O=C1O[C@H]([C@@H](O)CO)C(O)=C1O
2. C=C1CCCC2[C@](C)(Cc3cc(CO)cc(O)c3OS(=O)(=O)O)[C@@H](C)CC[C@]12C (stereo not given in full)

[27, 2.6]

====

# Test system: Botrytis cinerea
# assayRemarks: Antimicrobial activity against Botrytis cinerea at 20 ug by agar diffusion test
# Assay type: functional
# conditionParameters: read-out: IZ
metricName: zone of inhibition at 20 µg/disc (mm)
Numbers only, in mm.

1) C=C1CCCC2[C@](C)(Cc3cc(C=O)cc(O)c3OS(=O)(=O)O)[C@@H](C)CC[C@]12C (stereo not given in full); 0
2) C[C@H]1CCC2C(C)(C)CCC[C@]2(C)/C1=C/c1cc(O)c(O)c(/C=N/CCS(=O)(=O)O)c1OS(=O)(=O)O (stereo not given in full); 13
3) C=C1CCCC2[C@](C)(Cc3cc(CO)cc(O)c3OS(=O)(=O)O)[C@@H](C)CC[C@]12C (stereo not given in full); 15
4) C[C@H]1CCC2C(C)(C)CCC[C@]2(C)/C1=C/c1cc(O)c(O)c(C=O)c1OS(=O)(=O)O (stereo not given in full); 15

Value of zone of inhibition at 20 µg/disc reported for the compound C[C@H]1CCC2C(C)(C)CCC[C@]2(C)/C1=C/c1cc(OS(=O)(=O)O)c(O)c(C=O)c1OS(=O)(=O)O (stereo not given in full) is 0

====

# Test system: L929
# assayRemarks: Cytotoxicity against mouse L929 cells by MTT assay
# Type: cell-based
metricName: IC50

Value of IC50 reported for the compound C[C@H]1CCC2C(C)(C)CCC[C@]2(C)/C1=C/c1cc(O)c(O)c(C=O)c1OS(=O)(=O)O (stereo partly specified) is 6 µg/mL

====

So I've got a bunch of compounds here, and I need their zone of inhibition at 20 µg/disc values.
# Test system: Aspergillus fumigatus
# assayRemarks: Antimicrobial activity against Aspergillus fumigatus at 20 ug by agar diffusion test
# Type: functional
# conditionParameters: read-out: IZ
One number for each entry, in mm.

Example entries begin here.
1. C=C1CCCC2[C@](C)(Cc3cc(CO)cc(O)c3OS(=O)(=O)O)[C@@H](C)CC[C@]12C (stereo partly specified); 0
2. C[C@H]1CCC2C(C)(C)CCC[C@]2(C)/C1=C/c1cc(O)c(O)c(C=O)c1OS(=O)(=O)O (stereo partly specified); 0
3. C[C@H]1CCC2C(C)(C)CCC[C@]2(C)/C1=C/c1cc(OS(=O)(=O)O)c(O)c(C=O)c1OS(=O)(=O)O (stereo partly specified); 0
4. C[C@H]1CCC2C(C)(C)CCC[C@]2(C)/C1=C/c1cc(O)c(O)c(C=O)c1O (stereo partly specified); 15
5. C=C1CCCC2[C@](C)(Cc3cc(C=O)cc(O)c3OS(=O)(=O)O)[C@@H](C)CC[C@]12C (stereo partly specified); 0

Value of zone of inhibition at 20 µg/disc reported for the compound C[C@H]1CCC2C(C)(C)CCC[C@]2(C)/C1=C/c1cc(O)c(O)c(/C=N/CCS(=O)(=O)O)c1OS(=O)(=O)O (stereo partly specified) is 0
